Target: UniProtKB P28776
Sequence (P28776 whole entry): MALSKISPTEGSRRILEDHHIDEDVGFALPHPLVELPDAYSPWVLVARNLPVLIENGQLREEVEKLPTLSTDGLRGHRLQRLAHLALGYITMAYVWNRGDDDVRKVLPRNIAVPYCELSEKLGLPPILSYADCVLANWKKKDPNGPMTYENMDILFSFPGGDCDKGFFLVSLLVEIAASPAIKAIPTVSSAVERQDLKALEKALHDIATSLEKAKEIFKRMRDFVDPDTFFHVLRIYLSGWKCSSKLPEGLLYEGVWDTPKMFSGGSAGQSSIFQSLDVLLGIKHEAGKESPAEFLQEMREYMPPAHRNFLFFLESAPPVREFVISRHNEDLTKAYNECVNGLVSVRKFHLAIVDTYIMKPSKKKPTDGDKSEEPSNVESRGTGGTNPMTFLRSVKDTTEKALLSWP
Experiment: Inhibition of IDO1 in recombinant IFN-gamma induced mouse M109 cells incubated for 18 hrs by fluorescence microplate reader assay
Recorded Metric: pIC50
Just the number, please; pIC50 means minus log10 of the concentration in mol/L.

So what's the measured pIC50 for this one? CCC(c1nc2ccc(Cl)cc2[nH]1)[C@H]1CC[C@H](Oc2ccnc3ccccc23)CC1 (stereo partly drawn) 7.28

Here is the next compound: "C[C@@H](c1nc2ncc(Cl)cc2[nH]1)[C@H]1CC[C@@H](c2ccnc3ccc(F)cc32)CC1" 7.44

Here is the next compound: CCC(c1nc2ncc(Cl)cc2[nH]1)[C@H]1CC[C@@H](c2ccnc3ccc(C(F)(F)F)cc32)CC1 (stereo partly drawn) 8.52

Here is the next compound: CCC(Nc1nnc(-c2ccc(OC)cc2)o1)[C@H]1CC[C@H](Oc2ccnc3ccccc23)CC1 (stereo partly drawn) 6.83

Here is the next compound: CCC(Nc1nnc(-c2ccc(OC)cc2)o1)[C@H]1CC[C@@H](c2ccnc3ccc(C(F)(F)F)cc32)CC1 (stereo partly drawn) 8.22

Here is the next compound: "C[C@@H](c1nc2ccc(F)cc2[nH]1)[C@H]1CC[C@@H](c2ccnc3ccc(F)cc32)CC1" 7.66

Here is the next compound: "COc1ccc(-c2nnc(N[C@H](C)[C@H]3CC[C@@H](c4ccnc5ccc(F)cc54)CC3)o2)cc1" 7.85

Here is the next compound: "C[C@@H](c1ncc(-c2ccc(Cl)cc2)o1)[C@H]1CC[C@@H](c2ccnc3ccc(F)cc32)CC1" 6.20

Here is the next compound: CCOCC(Nc1nnc(-c2ccc(OC)cc2)o1)[C@H]1CC[C@@H](c2ccnc3ccc(C(F)(F)F)cc32)CC1 (stereo partly drawn) 7.24

Here is the next compound: CCC(Nc1nnc(-c2ccc(OC)cc2)o1)[C@H]1CC[C@@H](c2ccnc3c(F)cc(F)cc32)CC1 (stereo partly drawn) 7.44

---
So what's the measured pIC50 for this one? "COc1ccc(Nc2nnc([C@H](C)[C@H]3CC[C@@H](c4ccnc5ccc(F)cc54)CC3)o2)cc1" 6.35

Here is the next compound: "C[C@@H](c1ncc(-c2ccc(Cl)cc2)[nH]1)[C@H]1CC[C@@H](c2ccnc3ccc(F)cc32)CC1" 7.10

Here is the next compound: CCC(c1nc2ccc(Cl)cc2[nH]1)[C@H]1CC[C@@H](c2ccnc3ccc(F)cc32)CC1 (stereo partly drawn) 8.52

Here is the next compound: CCC(Nc1nnc(-c2ccc(OC)cc2)o1)[C@H]1CC[C@@H](c2ccnc3ccc(F)cc32)CC1 (stereo partly drawn) 7.51

Here is the next compound: CCC(c1nc2ncc(Cl)cc2[nH]1)[C@H]1CC[C@@H](c2ccnc3ccc(F)cc32)CC1 (stereo partly drawn) 8.30

Here is the next compound: "C[C@@H](c1nnc(-c2ccc(Cl)cc2)o1)[C@H]1CC[C@@H](c2ccnc3ccc(F)cc32)CC1" 6.46

Here is the next compound: "C[C@@H](c1nnc(-c2ccc(Cl)cc2)[nH]1)[C@H]1CC[C@@H](c2ccnc3ccc(F)cc32)CC1" 6.54

Here is the next compound: COCC(Nc1nnc(-c2ccc(OC)cc2)o1)[C@H]1CC[C@@H](c2ccnc3ccc(F)cc32)CC1 (stereo partly drawn) 7.36
